- System Under Test: T1, phosphorylated Nox1 peptide (peptide containing phosphorylated Nox1 at T429)
- T1 chain: KLKTQKIYF
- Measurement Protocol: ITC

{"Binder": "EPVDFLGKAKVVASAIP (modifications not checked) [NoxA1 activation domain peptide]", "Kd (nM)": 1500}
